- TARGET: Adenosine receptor A2a (Homo sapiens, UniProt P29274)
- Sequence (P29274 whole entry): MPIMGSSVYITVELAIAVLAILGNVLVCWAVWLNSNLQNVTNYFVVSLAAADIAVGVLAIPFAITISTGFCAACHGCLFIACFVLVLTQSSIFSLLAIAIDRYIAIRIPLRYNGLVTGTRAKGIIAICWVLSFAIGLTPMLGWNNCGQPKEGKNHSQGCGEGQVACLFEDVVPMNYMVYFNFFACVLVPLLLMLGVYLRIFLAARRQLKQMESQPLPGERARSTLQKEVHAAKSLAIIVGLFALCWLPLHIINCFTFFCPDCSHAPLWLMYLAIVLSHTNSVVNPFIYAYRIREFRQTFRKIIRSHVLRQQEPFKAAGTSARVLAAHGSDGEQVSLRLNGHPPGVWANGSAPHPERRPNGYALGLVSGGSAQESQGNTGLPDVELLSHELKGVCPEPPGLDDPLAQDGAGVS
- ASSAY_COMMENT: DRUGMATRIX: Adenosine A2A radioligand binding (ligand: […])
- Type: cell membranes, HEK293, Membrane
- RECORDED_CONDITIONS: hek293; Not Active = under 50% inhibition at 10 µM
MEASURE_NAME: IC50

>>> experimental_value("C[C@]12CCC(=O)C[C@@H]1CC[C@@H]1[C@@H]2CC[C@]2(C)[C@@H](O)CC[C@@H]12 [STANOLONE]")
"Not Active"
>>> experimental_value("COc1ccc(C[C@H](N)C(=O)N[C@H]2[C@@H](O)[C@H](n3cnc4c(N(C)C)ncnc43)O[C@@H]2CO)cc1 [PUROMYCIN]")
"Not Active"
>>> experimental_value("CN(Cc1cc(Br)cc(Br)c1N)C1CCCCC1 [BROMHEXINE]")
"Not Active"
>>> experimental_value("CC(C)(C#N)c1cc(Cn2cncn2)cc(C(C)(C)C#N)c1 [ANASTROZOLE]")
"Not Active"
>>> experimental_value("CC12CCC(CC1=O)C2(C)C (centres undefined) [CAMPHOR]")
"Not Active"
>>> experimental_value("Cc1ccc(Cl)c(Nc2ccccc2C(=O)O)c1Cl [MECLOFENAMIC ACID]")
"Not Active"
>>> experimental_value("O=C(O)CCc1nc(-c2ccccc2)c(-c2ccccc2)o1 [OXAPROZIN]")
"Not Active"
>>> experimental_value("CCO [ALCOHOL]")
"Not Active"
>>> experimental_value("O=c1[nH]cnc2c1ncn2[C@H]1CC[C@@H](CO)O1 [DIDANOSINE]")
"Not Active"
